assay: Encapsulation efficiency (EE %) by fluorescence based Ribogreen assay; type: physicochemical; settings: Table 3; LNP 50:10:38.5:1.5 mol %; hEPO mRNA; N:P 6
Readout type: Encapsulation Efficiency % (%)

CCCCCCCCC(CCCCCC)C(=O)OCCN(CCOC(=O)C(CCCCCC)CCCCCCCC)C(=O)CN (centres unmarked) [Compound 105]	99.9
CCCCCCCCC(CCCCCC)C(=O)OCCN(CCOC(=O)C(CCCCCC)CCCCCCCC)C(=O)C(N)Cc1ccccc1 (centres unmarked) [Compound 117]	95.1
CCCCCCCC/C=C\CCCCCCCC(=O)OCCN(CCOC(=O)CCCCCCC/C=C\CCCCCCCC)C(=O)[C@H](C)N.Cl [Compound 201]	99.9
CCCCCCCCC(CCCCCC)C(=O)OCCN(CCOC(=O)C(CCCCCC)CCCCCCCC)C(=O)CNCCO (centres unmarked) [Compound 305]	99.3
CCCCCCCC/C=C\CCCCCCCC(=O)OCCN(CCOC(=O)CCCCCCC/C=C\CCCCCCCC)C(=O)C(C)N (centres unmarked) [Compound 107]	99.9
CCCCCCCC/C=C\CCCCCCCC(=O)OCCN(CCOC(=O)CCCCCCC/C=C\CCCCCCCC)C(=O)C(N)Cc1ccccc1 (centres unmarked) [Compound 113]	99.7
CCCCCCCCC(CCCCCC)C(=O)OCCN(CCOC(=O)C(CCCCCC)CCCCCCCC)C(=O)C(C)N (centres unmarked) [Compound 111]	98.1
CCCCCCCC/C=C\CCCCCCCC(=O)OCCN(CCOC(=O)CCCCCCC/C=C\CCCCCCCC)C(=O)[C@@H](N)Cc1ccccc1.Cl [Compound 202]	99.7
